FYI, the data here is from PubChem BioAssay (NCI).

- Test system: MDA-MB-435 melanoma
- measurement-protocol: NCI-60 one-dose screen, 48 h (100 = growth as untreated, 0 = no growth, -100 = all killed)
- setup-conditions: 10 µM unless noted
The panel holds about 83,000 compounds, 20% with a hit somewhere; the sample as a whole holds those more often. Calls of active or inactive are those of the source. How the source made its calls: active means growth percent below 10; inactive means the rest.
measured-endpoint: growth

(Q) Any idea what its growth is? The compound is "Cc1[nH]n(C(N)=S)c(=O)c1N=Nc1ccc(S(=O)(=O)Nc2ccncn2)cc1"
(A) 136% (inactive)

(Q) Any idea what its growth is? The compound is CC(=O)c1cnc2ccc(-c3cc(Cl)c(O)c(Cl)c3)nc2c1NC1CCC(CN(C)C)CC1 (stereo not drawn)
(A) -37.2% [2.5 µM] (active)

(Q) Any idea what its growth is? The compound is "COc1ccc2c(c1OC)C(=O)O[C@@H]2[C@H]1c2c(c(C#CC#Cc3ccc(F)c(F)c3)c3c(c2OC)OCO3)CCN1C"
(A) 89.7% (inactive)

Now take the following compound into account.
(Q) Any idea what its growth is? The compound is "COc1cc(N2CCC(N3CCN(C)CC3)CC2)ccc1Nc1ncnc(Nc2ccccc2S(=O)(=O)C(C)C)n1"
(A) 108% (inactive)

###

- Tested on: M14 melanoma
- measurement-protocol: NCI-60 one-dose screen, 48 h (100 = growth as untreated, 0 = no growth, -100 = all killed)
- setup-conditions: 10 µM unless noted
About 83,000 compounds went through this panel and 20% of them were active in at least one assay; those are over-represented in the sample as a whole.
Items are presented alongside their recorded growth.
Dear colleague, please return just the value in %, with no unit written.

Worked cases, growth given:
(Q) Request: growth, test system M14 melanoma, entry "COc1cc2nccc(Oc3ccc(NC(=O)Nc4cc(C)on4)c(Cl)c3)c2cc1OC"
(A) 7.27

(Q) Request: growth, test system M14 melanoma, entry "CC[C@H](Nc1ncnc2nc[nH]c12)c1nc2cccc(F)c2c(=O)n1-c1ccccc1"
(A) 85.3

(Q) Request: growth, test system M14 melanoma, entry "COc1ccc(Nc2ncccc2NC(=O)c2cn(Cc3cccc(Oc4ccccc4)c3)nn2)cc1"
(A) 95.9

(Q) Request: growth, test system M14 melanoma, entry Cc1nn(-c2nc3ccccc3[nH]2)c2c1C(c1ccc(O)cc1)CC(=O)N2 (stereo unspecified)
(A) 72

(Q) Request: growth, test system M14 melanoma, entry "CC(C)(C)c1cnc(CSc2cnc(NC(=O)C3CCNCC3)s2)o1"
(A) -58.6

(Q) Request: growth, test system M14 melanoma, entry "COc1cc2ncnc(Nc3cccc(Cl)c3F)c2cc1OC(=O)N1CCN(C)C[C@H]1C"
(A) 84.9

(Q) Request: growth, test system M14 melanoma, entry O=C1C=CC2(NN=C(c3ccccc3)N2c2cccc(Cl)c2)c2cccc(O)c21 (stereo unspecified)
(A) 53.2

(Q) Request: growth, test system M14 melanoma, entry "CC(C)c1cc(CNc2nc(Nc3cc(C4CC4)[nH]n3)cc(N3CCN(C)CC3)n2)on1"
(A) -37.5

***
(Q) Request: growth, test system M14 melanoma, entry "COc1cc2ncnc(Oc3cccc(NC(=O)Nc4cc(C(C)(C)C(F)(F)F)on4)c3)c2cc1OC"
(A) -2.42

(Q) Request: growth, test system M14 melanoma, entry "C=CC(=O)N1CCC[C@H](n2c(=O)n(-c3ccc(Oc4ccccc4)cc3)c3c(N)ncnc32)C1"
(A) 84.1

###

- Test system: HT29 colon
- measurement-protocol: NCI-60 one-dose screen, 48 h (100 = growth as untreated, 0 = no growth, -100 = all killed)
- setup-conditions: 10 µM unless noted
About 83,000 compounds went through this panel and 20% of them were active in at least one assay; those are over-represented in the sample as a whole.
Mark each entry Yes if its growth sits below 60%, and No for all others.

Solved cases below.
(Q) Determine whether this molecule shows growth lower than 60% (ties excluded): "CCCS(=O)(=O)Nc1ccc(F)c(C(=O)c2c[nH]c3ncc(-c4ccc(Cl)cc4)cc23)c1F"
(A) Yes

(Q) Determine whether this molecule shows growth lower than 60% (ties excluded): CC(=O)C1CC(C)CCC1C(C)C (stereo not given)
(A) No

(Q) Determine whether this molecule shows growth lower than 60% (ties excluded): "O=C(/C=C/c1ccc2c(c1)OCO2)c1c(O)c2ccccc2oc1=O"
(A) No

***
(Q) Determine whether this molecule shows growth lower than 60% (ties excluded): "CC(=O)Oc1ccccc1C(=O)N=C1[Se]CCN1C(=O)c1ccccc1OC(C)=O"
(A) Yes

(Q) Determine whether this molecule shows growth lower than 60% (ties excluded): "Nc1nc(N)c2nc(-c3cccc(O)c3)c(-c3cccc(O)c3)nc2n1"
(A) No

(Q) Determine whether this molecule shows growth lower than 60% (ties excluded): "CC(=O)O[C@]1(C)C[C@H](O)[C@]2(O)C=CO[C@H](O[C@@H]3O[C@H](CO)[C@@H](O)[C@H](O)[C@H]3O)[C@@H]21"
(A) No

(Q) Determine whether this molecule shows growth lower than 60% (ties excluded): "Cc1ccc(Nc2nccc(N(C)c3ccc4c(C)n(C)nc4c3)n2)cc1S(N)(=O)=O"
(A) Yes

(Q) Determine whether this molecule shows growth lower than 60% (ties excluded): "N#CC[C@H](C1CCCC1)n1cc(-c2ncnc3[nH]ccc23)cn1"
(A) No

(Q) Determine whether this molecule shows growth lower than 60% (ties excluded): "C#Cc1cccc(Nc2ncnc3cc(OCCOC)c(OCCOC)cc23)c1"
(A) Yes

(Q) Determine whether this molecule shows growth lower than 60% (ties excluded): "CNC(=O)c1cnc(C)nc1-c1cc(C(C)(C)C)c(O)c(C(C)(C)C)c1"
(A) No

###

- Test system: UACC-62 melanoma
- measurement-protocol: NCI-60 one-dose screen, 48 h (100 = growth as untreated, 0 = no growth, -100 = all killed)
- setup-conditions: 10 µM unless noted
About 83,000 compounds went through this panel and 20% of them were active in at least one assay; those are over-represented in the sample as a whole. Calls of active or inactive are those of the source. How the source made its calls: active means growth percent below 10; inactive means the rest.
measured-endpoint: growth

(Q) Any idea what its growth is? The compound is N#Cc1c(-c2ccc(C(F)(F)F)cc2)c(F)c(NCCC2CCC(O)C2)n2c1nc1ccccc12 (stereo not given)
(A) 72.7% (inactive)

***
(Q) Any idea what its growth is? The compound is "CCc1nc2cc(/C=C/C(=O)NO)ccc2c(=O)n1CCc1ccc(OC)cc1"
(A) -5.16% (active)

(Q) Any idea what its growth is? The compound is "COc1cc(NCCCN)c2ncccc2c1"
(A) 86.8% (inactive)

(Q) Any idea what its growth is? The compound is "NC1(c2ccc(-c3nc4ccn5c(=O)[nH]nc5c4cc3-c3ccccc3)cc2)CCC1"
(A) 47.5% (inactive)

(Q) Any idea what its growth is? The compound is "O=C(COc1ccc(/C=C2\Cc3ccc(Cl)cc3C2=O)cc1)Nc1nccs1"
(A) 95.3% (inactive)

(Q) Any idea what its growth is? The compound is "CNC(=O)c1cnc(C)nc1-c1cc(C(C)(C)C)c(O)c(C(C)(C)C)c1"
(A) 90.7% (inactive)

(Q) Any idea what its growth is? The compound is "NC(=O)c1n[nH]n2c1nc(=O)c1c3c(sc12)CCCC3"
(A) 103% (inactive)

(Q) Any idea what its growth is? The compound is "CNC(=O)CN1CCC(Oc2cc3c(Nc4cccc(Cl)c4F)ncnc3cc2OC)CC1"
(A) 86.8% (inactive)

(Q) Any idea what its growth is? The compound is "COc1cnc2c(c1)C(=O)c1c-2n(CCCN2CCC(O)CC2)c(=O)c2cc(Cl)ccc12"
(A) 24.5% (inactive)

(Q) Any idea what its growth is? The compound is "Cc1ncc(-c2ccnc(Nc3ccc(S(C)(=O)=O)cc3)n2)n1C(C)C"
(A) -71.5% (active)

###

- Test system: SF-295 CNS
- measurement-protocol: NCI-60 one-dose screen, 48 h (100 = growth as untreated, 0 = no growth, -100 = all killed)
- setup-conditions: 10 µM unless noted
Compounds without any hit were thinned out: in the full panel of roughly 83,000, 20% have a hit.
measured-endpoint: growth (%)
Dear colleague, please return just the value in %, with no unit written.

Worked cases, growth given:
(Q) Request: growth, test system SF-295 CNS, entry "CC(=O)OCCC/C(=C\c1ccc2ccccc2c1)[N+](=O)[O-]"
(A) 18

(Q) Request: growth, test system SF-295 CNS, entry "C=CC[n+]1c(/C=C/C=C2\N(C)c3ccccc3C2(C)C)sc2ccc(OC)cc21"
(A) -17.7

(Q) Request: growth, test system SF-295 CNS, entry CC(=O)CC1CCCC1c1ccc2ccccc2c1 (centres undefined)
(A) 106

(Q) Request: growth, test system SF-295 CNS, entry COc1cc2c(cc1OCCCCN1CCN(CC(=O)Nc3ccc(Cl)cc3C(=O)c3ccccc3Cl)CC1)N=CC1CCCN1C2=O (centres undefined)
(A) -94.6

(Q) Request: growth, test system SF-295 CNS, entry "COc1ccc2c(CCCc3ccc(Cl)cc3Cl)c3[n+](cc2c1OC)CCc1cc2c(cc1-3)OCO2"
(A) -19.3

(Q) Request: growth, test system SF-295 CNS, entry "COCCOc1cnc2ccn([C@H](C)c3nnc4c(F)cc(-c5cnn(C)c5)cn34)c(=O)c2c1"
(A) 67.4

***
(Q) Request: growth, test system SF-295 CNS, entry "Cn1ccnc1C(=O)/C=C/c1ccc(CC(=O)Nc2ccc(C(F)(F)F)cc2)cc1"
(A) 7.9

(Q) Request: growth, test system SF-295 CNS, entry "CC(C)(C)c1nc(-c2cccc(NS(=O)(=O)c3c(F)cccc3F)c2F)c(-c2ccnc(N)n2)s1"
(A) 112

(Q) Request: growth, test system SF-295 CNS, entry "CC(C)[C@@H]1CC[C@@H]2[C@@H]1[C@H](OC(=O)/C=C/c1ccccc1)[C@]1(C(C)C)C[C@@H](OC(=O)CO)[C@@]2(C)O1"
(A) 92.2

(Q) Request: growth, test system SF-295 CNS, entry COc1cc2c(cc1OCCCCCN1CCN(c3ncnc4ccccc34)CC1)N=CC1CCCN1C2=O (centres undefined)
(A) -39.7

(Q) Request: growth, test system SF-295 CNS, entry "COc1ccc(-n2c(=O)c3ccccc3n(Cc3ccc(C(=O)NO)cc3)c2=O)cc1"
(A) 4.34

(Q) Request: growth, test system SF-295 CNS, entry "CCc1cc2c(cc1N1CCC(N3CCOCC3)CC1)C(C)(C)c1[nH]c3cc(C#N)ccc3c1C2=O"
(A) -3.18

(Q) Request: growth, test system SF-295 CNS, entry "CCN(CCN(C)C)C(=O)CNCc1cc(C(N)=O)ccn1"
(A) 104

(Q) Request: growth, test system SF-295 CNS, entry O=C1CSC(c2c(F)cccc2Cl)N1NC(=O)C(O)(c1ccccc1)c1ccccc1 (centres undefined)
(A) 94.3
